# Tested on: RARg homodimer (NR concentration 270 nM)
# EXPERIMENTAL_PROTOCOL: PBM binding z-score (relative to random genomic background probes); higher = stronger binding; sequences stand for … in GC…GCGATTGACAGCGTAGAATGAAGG
Classes are defined on PBM binding z-score with ranges LOW = under 1, MID = from 1 up to 4, HIGH = 4 and over

Inquiry: GET /class?item= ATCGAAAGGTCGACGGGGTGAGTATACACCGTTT
Reply text: HIGH

Inquiry: Try this sequence too: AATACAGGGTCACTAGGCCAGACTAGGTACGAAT
Reply text: HIGH

Inquiry: How about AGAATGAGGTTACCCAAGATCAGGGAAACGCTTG ?
Reply text: MID

Inquiry: Same read-out for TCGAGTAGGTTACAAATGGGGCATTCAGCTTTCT ?
Reply text: LOW

Inquiry: Now give it for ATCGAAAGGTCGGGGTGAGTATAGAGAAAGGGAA too.
Reply text: MID

Inquiry: What about TCTGCTAGGTCAACGATGGTCAGCCAATCTGCTA ?
Reply text: HIGH

Inquiry: Next sequence up: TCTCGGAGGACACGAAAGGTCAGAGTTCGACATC
Reply text: HIGH

Inquiry: Now the same for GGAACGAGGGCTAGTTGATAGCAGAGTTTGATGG
Reply text: LOW

Inquiry: How about this sequence: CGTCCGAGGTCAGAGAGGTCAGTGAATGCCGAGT
Reply text: HIGH

Inquiry: What about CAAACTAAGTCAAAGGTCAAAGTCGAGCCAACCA ?
Reply text: HIGH

Inquiry: What do we get for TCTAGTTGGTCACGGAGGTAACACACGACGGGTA ?
Reply text: MID

Inquiry: Now consider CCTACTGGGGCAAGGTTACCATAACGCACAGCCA and answer again.
Reply text: MID

Inquiry: Then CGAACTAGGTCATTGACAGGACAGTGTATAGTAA ?
Reply text: HIGH

Inquiry: How about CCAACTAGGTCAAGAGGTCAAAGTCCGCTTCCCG ?
Reply text: HIGH

Inquiry: Now consider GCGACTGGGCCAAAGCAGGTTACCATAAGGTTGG and answer again.
Reply text: LOW

Inquiry: Now the sequence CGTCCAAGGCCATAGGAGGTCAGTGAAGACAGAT
Reply text: MID

Inquiry: Queued: CAGGCTAGGTCAGGGCCAGTATAGGAGGAACGTT
Reply text: HIGH

Inquiry: Another: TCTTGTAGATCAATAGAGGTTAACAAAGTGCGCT
Reply text: LOW

Inquiry: What about this sequence? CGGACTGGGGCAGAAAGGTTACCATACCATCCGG
Reply text: MID

Inquiry: Consider next the sequence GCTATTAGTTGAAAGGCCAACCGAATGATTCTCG in the same way.
Reply text: LOW

Inquiry: Now consider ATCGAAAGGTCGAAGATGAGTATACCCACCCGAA and answer again.
Reply text: MID

Inquiry: Record: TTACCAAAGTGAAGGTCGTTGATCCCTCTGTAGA
Reply text: LOW

Inquiry: Consider next the sequence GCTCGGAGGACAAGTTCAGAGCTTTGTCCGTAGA in the same way.
Reply text: MID

Inquiry: Okay, and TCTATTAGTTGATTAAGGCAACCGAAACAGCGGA ?
Reply text: LOW

Inquiry: Do the same for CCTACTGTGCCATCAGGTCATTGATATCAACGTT please
Reply text: MID

Inquiry: Another: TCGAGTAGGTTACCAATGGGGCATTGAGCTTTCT
Reply text: LOW
